Test system: 628569-122-R-J1-PDC complex spheroid viability
measurement notes: Anticancer human tumor 628569-122-R-J1-PDC patient-derived head and neck squamous carcinoma cell line growth inhibition [CLK]
experimental context: curve of first compound; second compound 0.316 µM
Some compounds, each annotated with its measured IC50.

{"compound": "Cn1ncnc1[C@H]1c2n[nH]c(=O)c3cc(F)cc(c23)N[C@@H]1c1ccc(F)cc1 + CN1CCN(c2cc(C(=O)Nc3cc4cc(-c5cnn(C)c5)ccc4cn3)ccn2)CC1", "IC50": "< 0.316 nM"}
{"compound": "CC1COCCN1c1cc(C2(S(C)(=N)=O)CC2)nc(-c2ccnc3[nH]ccc23)n1 (stereo not drawn) + CN1CCN(c2cc(C(=O)Nc3cc4cc(-c5cnn(C)c5)ccc4cn3)ccn2)CC1", "IC50": "< 31.6 nM"}
{"compound": "Nc1ccccc1NC(=O)c1ccc(CNC(=O)OCc2cccnc2)cc1 + CN1CCN(c2cc(C(=O)Nc3cc4cc(-c5cnn(C)c5)ccc4cn3)ccn2)CC1", "IC50": "< 31.6 nM"}
{"compound": "CC(C)CC(NC(=O)C(Cc1ccccc1)NC(=O)c1cnccn1)B(O)O (stereo not drawn) + CN1CCN(c2cc(C(=O)Nc3cc4cc(-c5cnn(C)c5)ccc4cn3)ccn2)CC1", "IC50": "< 0.949 nM"}
{"compound": "CC(CO)NC(=O)c1cc(-c2ccc(Cl)cc2)nn(-c2cnn(C)c2)c1=O (stereo not drawn) + CNC(=O)c1ccc(Nc2nc(OC3CCCC3)c3c(-c4ccc5nc(C)oc5c4)c[nH]c3n2)c(OC)c1", "IC50": "> 10000 nM"}
{"compound": "O=C(c1cc(Cc2n[nH]c(=O)c3ccccc23)ccc1F)N1CCN(C(=O)C2CC2)CC1 + CNC(=O)c1ccc(Nc2nc(OC3CCCC3)c3c(-c4ccc5nc(C)oc5c4)c[nH]c3n2)c(OC)c1", "IC50": "1980 nM"}
{"compound": "NC(=O)C(=Cn1cnc(-c2cc(C(F)(F)F)cc(C(F)(F)F)c2)n1)c1cncnc1 + CNC(=O)c1ccc(Nc2nc(OC3CCCC3)c3c(-c4ccc5nc(C)oc5c4)c[nH]c3n2)c(OC)c1", "IC50": "< 9.49 nM"}
{"compound": "C=C(F)C(=O)N1CCN(c2nc(OCC3CCCN3C)nc3c2CCN(c2cccc4cccc(Cl)c24)C3)CC1CC#N (stereo not drawn) + CN1CCN(c2cc(C(=O)Nc3cc4cc(-c5cnn(C)c5)ccc4cn3)ccn2)CC1", "IC50": "< 31.6 nM"}

---

Some molecules, each annotated with its measured viability, T/C.
Test system: 628569-122-R-J1-PDC complex spheroid viability
measurement notes: Anticancer human tumor 628569-122-R-J1-PDC cell line growth inhibition [CLK];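 further: spheroids exposed to agents for seven days before readout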;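 on viability, T/C: 100% = DMSO vehicle control viability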
experimental context: second compound 3.16 µM; first compound 1 µM; stronger effect = lower value
readout name: viability, T/C (%)

{"molecule": "Nc1ccccc1NC(=O)c1ccc(CNC(=O)OCc2cccnc2)cc1 + CN1CCN(c2cc(C(=O)Nc3cc4cc(-c5cnn(C)c5)ccc4cn3)ccn2)CC1", "tgt": "628569-122-R-J1-PDC complex spheroid viability", "numeric result": 5.7}
{"molecule": "CC1(C)CCC(CN2CCN(c3ccc(C(=O)NS(=O)(=O)c4ccc(NCC5CCOCC5)c([N+](=O)[O-])c4)c(Oc4cnc5[nH]ccc5c4)c3)CC2)=C(c2ccc(Cl)cc2)C1 + CNC(=O)c1ccc(Nc2nc(OC3CCCC3)c3c(-c4ccc5nc(C)oc5c4)c[nH]c3n2)c(OC)c1", "tgt": "628569-122-R-J1-PDC complex spheroid viability", "numeric result": 51.4}
{"molecule": "CCCS(=O)(=O)Nc1ccc(F)c(C(=O)c2c[nH]c3ncc(-c4ccc(Cl)cc4)cc23)c1F + CNC(=O)c1ccc(Nc2nc(OC3CCCC3)c3c(-c4ccc5nc(C)oc5c4)c[nH]c3n2)c(OC)c1", "tgt": "628569-122-R-J1-PDC complex spheroid viability", "numeric result": 44.2}
{"molecule": "O=C(c1cc(Cc2n[nH]c(=O)c3ccccc23)ccc1F)N1CCN(C(=O)C2CC2)CC1 + CNC(=O)c1ccc(Nc2nc(OC3CCCC3)c3c(-c4ccc5nc(C)oc5c4)c[nH]c3n2)c(OC)c1", "tgt": "628569-122-R-J1-PDC complex spheroid viability", "numeric result": 41.2}
{"molecule": "COc1ccc([C@@H](O)c2cc(-c3ncnc4cc(N5CCOCC5)ccc34)c(F)cc2Cl)nn1 + CNC(=O)c1ccc(Nc2nc(OC3CCCC3)c3c(-c4ccc5nc(C)oc5c4)c[nH]c3n2)c(OC)c1", "tgt": "628569-122-R-J1-PDC complex spheroid viability", "numeric result": 37.4}
